Biological target: human GPR84-Gαi2 fusion protein (Homo sapiens, UniProt Q9NQS5)
Sequence (Q9NQS5 whole entry, the tested form may be a part): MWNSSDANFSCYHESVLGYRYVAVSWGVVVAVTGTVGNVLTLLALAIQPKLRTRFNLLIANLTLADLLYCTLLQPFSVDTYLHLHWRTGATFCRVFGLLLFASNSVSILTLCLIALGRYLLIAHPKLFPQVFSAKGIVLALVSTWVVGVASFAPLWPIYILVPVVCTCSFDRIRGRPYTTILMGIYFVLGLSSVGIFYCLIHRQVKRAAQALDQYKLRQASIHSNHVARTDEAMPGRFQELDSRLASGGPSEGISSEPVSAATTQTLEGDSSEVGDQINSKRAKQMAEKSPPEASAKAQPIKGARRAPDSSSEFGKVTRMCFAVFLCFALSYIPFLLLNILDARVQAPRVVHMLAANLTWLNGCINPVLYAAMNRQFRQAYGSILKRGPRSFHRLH
Sequence (P04899 2-355, further chain): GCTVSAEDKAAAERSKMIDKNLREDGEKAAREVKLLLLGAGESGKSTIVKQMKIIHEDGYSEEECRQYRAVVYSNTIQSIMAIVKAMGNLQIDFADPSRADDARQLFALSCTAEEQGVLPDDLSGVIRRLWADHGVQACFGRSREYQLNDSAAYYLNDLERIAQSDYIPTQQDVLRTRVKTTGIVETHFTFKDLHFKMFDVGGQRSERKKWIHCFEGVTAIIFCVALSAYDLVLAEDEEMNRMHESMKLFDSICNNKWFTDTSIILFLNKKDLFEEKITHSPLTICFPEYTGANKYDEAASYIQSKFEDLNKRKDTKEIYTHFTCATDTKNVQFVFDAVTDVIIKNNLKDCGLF
Experiment: [^35S]GTPγS binding assay, membranes of Flp-In TREx 293 cells expressing human GPR84-Gαi2
Conditions: against an EC80 of embelin
Value Kind: IC50

Exercise: Recorded IC50 of COc1ccc(-c2nnc(Cc3c[nH]c4ccccc34)nc2-c2ccc(OC)cc2)cc1 , please.
Key: < 100 nM
